# System: EF1α promoter
# Measurement Setup: undifferentiated ESCs, 48 h exposure
Entries and their LOAEL ESC EF1α values follow.
Observable: LOAEL ESC EF1α (µM)

[
  {
    "Compound": "COC(=O)c1ccc2c(c1)NC(=O)/C2=C(\\Nc1ccc(N(C)C(=O)CN2CCN(C)CC2)cc1)c1ccccc1 [Nintedanib]",
    "Qualifier Operator": "=",
    "Reported Result": 5
  },
  {
    "Compound": "CC(C)NCC(O)COc1cccc2ccccc12 (centres unmarked) [Propranolol]",
    "Qualifier Operator": "=",
    "Reported Result": 50
  },
  {
    "Compound": "[CH3][Hg][Cl] [Methylmercury]",
    "Qualifier Operator": "=",
    "Reported Result": 0.5
  },
  {
    "Compound": "COC1=C2C[C@@H](C)C[C@H](OC)[C@H](O)[C@@H](C)/C=C(\\C)[C@H](OC(N)=O)[C@@H](OC)/C=C\\C=C(/C)C(=O)NC(=CC1=O)C2=O [Geldanamycin]",
    "Qualifier Operator": "=",
    "Reported Result": 0.5
  },
  {
    "Compound": "CC(C)Cc1ccc(C(C)C(=O)O)cc1 (centres unmarked) [Ibuprofen]",
    "Qualifier Operator": ">",
    "Reported Result": 50
  }
]

---

# Test system: Tubulin α1 (Tα1) promoter
# Measurement Setup: undifferentiated ESCs, 48 h exposure; lowest tested concentration with statistically significant decrease

[
  {
    "Compound": "COc1ccc2[nH]c([S+]([O-])Cc3ncc(C)c(OC)c3C)nc2c1 (centres unmarked)",
    "Value Units": "µM",
    "Qualifier Operator": ">",
    "LOAEL ESC Tα1": 50
  },
  {
    "Compound": "Cc1[nH]c2ccccc2c1CCNCc1ccc(/C=C/C(=O)NO)cc1",
    "Value Units": "µM",
    "Qualifier Operator": "=",
    "LOAEL ESC Tα1": 0.05
  },
  {
    "Compound": "CCCC(CCC)C(=O)O",
    "Value Units": "µM",
    "Qualifier Operator": "=",
    "LOAEL ESC Tα1": 5000
  },
  {
    "Compound": "O=c1[nH]c(=O)c2[nH]c(=O)[nH]c2[nH]1",
    "Value Units": "µM",
    "Qualifier Operator": ">",
    "LOAEL ESC Tα1": 50
  },
  {
    "Compound": "Cc1ccc(NC(=O)c2ccc(CN3CCN(C)CC3)cc2)cc1Nc1nccc(-c2cccnc2)n1",
    "Value Units": "µM",
    "Qualifier Operator": "=",
    "LOAEL ESC Tα1": 10
  },
  {
    "Compound": "COC1=C2C[C@@H](C)C[C@H](OC)[C@H](O)[C@@H](C)/C=C(\\C)[C@H](OC(N)=O)[C@@H](OC)/C=C\\C=C(/C)C(=O)NC(=CC1=O)C2=O",
    "Value Units": "µM",
    "Qualifier Operator": "=",
    "LOAEL ESC Tα1": 0.005
  },
  {
    "Compound": "OC[C@@H](O)[C@@H](O)[C@H](O)[C@H](O)CO",
    "Value Units": "µM",
    "Qualifier Operator": ">",
    "LOAEL ESC Tα1": 50
  },
  {
    "Compound": "C[C@]12CC[C@H](O)CC1=CC[C@@H]1[C@@H]2CC[C@]2(C)C(c3cccnc3)=CC[C@@H]12",
    "Value Units": "µM",
    "Qualifier Operator": ">",
    "LOAEL ESC Tα1": 2
  }
]
